# tested.system: cellular BACE1 in CHOK1-huAPP cells
# method.description: cell-based or functional assay
Cellular IC50 by entry:
Answer with the figure and its unit, nothing else.

1D7 (antibody, human IgG1, V domains shown, chimeric, human IgG1/kappa; also called Clone 1D7) VH: EVKLMESGPGLVAPSQSLSISCTVSGFSLTSYGVDWVRQPPGKGLEWLGVVWGGGSTNYNSALMSRLSISKDNSKSQVFLKMNSLQTDDTAMYYCAKRDYFGGLNVWGTGTTVTVSS VL: DIVMTQTTSPLSVSLGDRVTISCRASQDISKYLNWYQQRPDGTVKLLIYYTSRLHSGVPSRFSGSGSGTDYSLTISNLEQEDIATYFCHQGHKIPYTFGGGTKLELK :: 4 nM
1F1 (antibody, human IgG1, V domains shown, chimeric, human IgG1/kappa; also called Clone 1F1) VH: EVQLQQSGAELMKPGASVKLSCKATGYTFIGYWIDWVKQRPGHGLEWIGEILPGGGSTNHNEKFKGKATFTTDTSSNTVYMQLSSLTTEDSAIYYCAREGSYGNYYFDYWGQGTSVTVSS VL: DIQMTQTPLSLPVSLGDQASISCRSSQSIVHSNGNTYLEWYLQKPGQSPKLLIYKVSNRFSGVPDRFSGSGSGTDFTLKISRVEAEDLGVYYCFQGSHVPYTFGGGTKLEIK :: 11 nM
2H8 (antibody, human IgG1, V domains shown, chimeric, human IgG1/kappa; also called Clone 2H8; 2H8.01) VH: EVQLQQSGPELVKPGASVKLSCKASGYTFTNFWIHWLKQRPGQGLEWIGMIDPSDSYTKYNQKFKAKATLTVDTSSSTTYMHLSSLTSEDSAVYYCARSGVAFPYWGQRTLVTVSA VL: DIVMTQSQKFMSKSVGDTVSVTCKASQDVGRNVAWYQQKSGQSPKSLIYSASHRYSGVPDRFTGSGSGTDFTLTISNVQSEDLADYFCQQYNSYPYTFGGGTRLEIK :: 16 nM
4H10 (antibody, human IgG1, V domains shown, chimeric, human IgG1/kappa; also called Clone 4H10) VH: EIQLQQSGPELKKPGETVKISCKTSGYTFTTYGMTWVKQAPGKGLKWMGWINTYSGVPIYADDFKGRSAFSLETSASTAYLQINNLENEDTATYFCARRGSTAHYFDYWGQGTTVTVSS VL: DIVLTQSHKFMSTSVGDRVSITCKASQDVSTAVAWYQQKPGQSPKLLIYWASTRHTGVPDRFTGSGSGTDYTLTISSVQAEDLALYYCQQHYSTPYTFGGGTKLELK :: 18 nM

Then there is this binder:
So what does the record say about Cellular IC50 for 1D2 (antibody, human IgG1, V domains shown, chimeric, human IgG1/kappa; also called Clone 1D2) VH: EVHVKQSGPELKKPGETVTISCKASGYTFTTYGMTWVRQAPGKDLEWMGWINTHSGVPIYADDFKGRFAFSLETSAGTAYLQINNLKNEDTATYFCTRRGRLGHYFDYWGQGTSVTVSS VL: DIVMTQSQKFMSTSVGDRVSVTCKASQNVGTNVAWYQQKPGQSPKLLIYWASTRHTGVPDRFTGSGSGTDFTLTISNVQSEDLADYFCQQYSSYPYTFGGGTKLELK ?
4 nM

Values from patent US20210070881A1
